Tested on: P388/ADR
Experiment: cells
Type: functional
Conditions: Mus musculus
Active and inactive are the calls of the source.
List of GI50 values.

| record_smiles | GI50 |
| --- | --- |
| COc1ccc2c(c1O)-c1cc(O)cc3c1[C@@H](C2)N(C)CC3 | 40.2 µM (inactive) |
| c1ccc2c(c1)OCCc1cn[nH]c1-2 | > 100 µM (inactive) |
| Cn1c(=O)[nH]c2nncnc2c1=O | 213 µM (inactive) |
| CSc1nc(CO)c(CO)n1C | > 100 µM (inactive) |

----------
List of IC50 values.
Assay: HGIII-sPLA2 enzyme inhibition potency – biochemical, QFRET, IC50, dose response (AID 743457);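 further: green fluorescence rise as the enzyme cleaves BODIPY PC-A2 in liposomes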
Calls of active or inactive are those of the source.

| compound | IC50 |
| --- | --- |
| CC(C)CC(=O)NC(=S)NNC(=O)c1cccc([N+](=O)[O-])c1 | > 122 µM (inactive) |
| O=C(NC(=S)Nc1ccccc1N1CCCC1)c1ccc([N+](=O)[O-])cc1 | 44.6 µM (inactive) |
| CCCCC(=O)NC(c1ccccc1OC)c1ccc2cccnc2c1O (centres undefined) | > 122 µM (inactive) |
| O=C(NNC(=O)c1ccc2ccccc2c1O)Nc1ccc(F)cc1 | > 122 µM (inactive) |

----------
Lab note: AC50 readings collected with Cytochrome P450 3A4 (Homo sapiens, UniProt P08684) for the following molecules.
Sequence (P08684 whole entry): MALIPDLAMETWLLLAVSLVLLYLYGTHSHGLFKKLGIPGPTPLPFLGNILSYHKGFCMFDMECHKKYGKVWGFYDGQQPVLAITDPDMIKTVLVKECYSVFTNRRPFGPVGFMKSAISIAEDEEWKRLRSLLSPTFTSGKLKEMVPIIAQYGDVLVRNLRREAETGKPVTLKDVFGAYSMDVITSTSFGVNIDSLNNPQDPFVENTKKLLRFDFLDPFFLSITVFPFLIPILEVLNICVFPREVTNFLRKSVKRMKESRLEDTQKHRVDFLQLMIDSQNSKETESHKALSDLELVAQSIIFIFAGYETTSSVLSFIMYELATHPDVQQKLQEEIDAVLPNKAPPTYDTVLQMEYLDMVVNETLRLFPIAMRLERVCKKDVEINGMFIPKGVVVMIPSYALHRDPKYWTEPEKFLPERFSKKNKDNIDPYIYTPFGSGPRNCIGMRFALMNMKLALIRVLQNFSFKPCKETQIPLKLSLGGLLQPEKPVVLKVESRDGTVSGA

| record_smiles | AC50 |
| --- | --- |
| O=C(Oc1ccccc1)N1CCC2(CC1)CN(Cc1ccncc1)C2 | 12.6 µM (inconclusive) |
| O=C(Nc1ccc(F)cc1F)c1cccn1-c1ncc(C(F)(F)F)cc1Cl | 28.2 µM (inconclusive) |
| Cc1ccccc1NC1=C(C(=O)c2ccccc2)N(C)S(=O)(=O)c2ccccc21 | 3.16 µM (inconclusive) |
| O=C(CSCc1ccc(Cl)cc1)Nc1nccs1 | 3.55 µM (inconclusive) |
| O=[N+]([O-])c1cccc(/C=N/Nc2cc(Cl)nc(-c3ccccc3)n2)c1 | 17.8 µM (inconclusive) |
| CN(Cc1ccccc1)Cn1ccnc1 | 3.98 µM (inconclusive) |

----------
Target: Caspase-3 (Homo sapiens, UniProt P42574);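 further: Dose-response selectivity test against caspase-3 for candidate inhibitors of sentrin-specific proteases (SENPs)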
Sequence (P42574 29-175 limits assumed): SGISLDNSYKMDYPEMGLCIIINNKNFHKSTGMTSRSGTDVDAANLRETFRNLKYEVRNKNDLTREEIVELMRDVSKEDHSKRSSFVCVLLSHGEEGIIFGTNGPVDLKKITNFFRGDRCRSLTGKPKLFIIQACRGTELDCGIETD
Sequence (P42574 176-277 limits assumed): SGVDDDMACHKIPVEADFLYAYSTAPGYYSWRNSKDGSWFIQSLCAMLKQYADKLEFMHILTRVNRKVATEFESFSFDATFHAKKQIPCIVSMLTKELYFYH
Type: functional
Active and inactive are the calls of the source.
Classes used: TRUE for active, FALSE for inactive

| record_smiles | assayed_system | category |
| --- | --- | --- |
| Cc1ccccc1-c1nc2sc3c(c2c(=O)o1)CCC3 | Caspase-3 (Homo sapiens, UniProt P42574) | TRUE |
| Cc1ccccc1N1C(=O)Cc2ccccc2C1=O | Caspase-3 (Homo sapiens, UniProt P42574) | TRUE |
| CSc1nc2ccc(NC(=O)c3cc4ccccc4o3)cc2s1 | Caspase-3 (Homo sapiens, UniProt P42574) | FALSE |
| CCn1c(SCc2ccccc2Cl)nc2ccccc21 | Caspase-3 (Homo sapiens, UniProt P42574) | TRUE |
| O=C(NN=c1c(=O)c2ccccc2c1=O)c1ccccc1 | Caspase-3 (Homo sapiens, UniProt P42574) | FALSE |
| Fc1cccc(F)c1-c1nc(-c2ccc(Cl)cc2)no1 | Caspase-3 (Homo sapiens, UniProt P42574) | TRUE |

----------
Target: DNA dC->dU-editing enzyme APOBEC-3G (Homo sapiens, UniProt Q9HC16)
Sequence (Q9HC16 whole entry): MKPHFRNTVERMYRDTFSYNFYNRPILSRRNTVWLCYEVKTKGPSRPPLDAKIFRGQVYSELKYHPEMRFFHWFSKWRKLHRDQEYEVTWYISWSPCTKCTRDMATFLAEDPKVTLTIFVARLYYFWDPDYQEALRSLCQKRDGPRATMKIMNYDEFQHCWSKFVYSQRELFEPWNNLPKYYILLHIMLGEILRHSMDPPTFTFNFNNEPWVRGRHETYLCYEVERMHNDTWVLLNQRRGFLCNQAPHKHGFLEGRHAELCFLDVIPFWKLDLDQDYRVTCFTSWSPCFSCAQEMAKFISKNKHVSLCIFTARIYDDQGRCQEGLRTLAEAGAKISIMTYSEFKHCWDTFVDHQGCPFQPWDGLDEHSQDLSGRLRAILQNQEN
Assay: Dose Response confirmation of small molecule APOBEC3G DNA Deaminase Inhibitors via a fluorescence-based single-stranded DNA deaminase assay. [Related pubchem assays (depositor defined):AID493012, AID493028]
Assay type: functional
Activity calls are given as the source filed them.
measure: IC50

| compound | measure | value_reported |
| --- | --- | --- |
| O=[N+]([O-])c1cccc(/C=N/n2c(S)nnc2COc2ccccc2)c1 | IC50 | 5.51 µM (active) |
| COc1ccc(N2C(=O)C[S+]([O-])C(c3ccccc3)C2=O)cc1 (stereo unspecified) | IC50 | 7.26 µM (active) |
| COc1ccc(N2C(=O)CC(Sc3n[nH]c(-c4ccc(C)cc4)n3)C2=O)cc1 (stereo unspecified) | IC50 | 21.2 µM (active) |
| Cc1cc(C)c2c(=O)n(CC(=O)Nc3cccc(Cl)c3C)sc2n1 | IC50 | 6.83 µM (active) |
| CCn1c(S)nnc1CCCCc1nnc(S)n1CC | IC50 | 25.8 µM (active) |
| O=C(O)CC(Sc1nnc(S)s1)C(=O)O (stereo unspecified) | IC50 | 45.1 µM (active) |
